- experimental-target: Sex hormone-binding globulin (Homo sapiens)
- Sequence (P04278 whole entry): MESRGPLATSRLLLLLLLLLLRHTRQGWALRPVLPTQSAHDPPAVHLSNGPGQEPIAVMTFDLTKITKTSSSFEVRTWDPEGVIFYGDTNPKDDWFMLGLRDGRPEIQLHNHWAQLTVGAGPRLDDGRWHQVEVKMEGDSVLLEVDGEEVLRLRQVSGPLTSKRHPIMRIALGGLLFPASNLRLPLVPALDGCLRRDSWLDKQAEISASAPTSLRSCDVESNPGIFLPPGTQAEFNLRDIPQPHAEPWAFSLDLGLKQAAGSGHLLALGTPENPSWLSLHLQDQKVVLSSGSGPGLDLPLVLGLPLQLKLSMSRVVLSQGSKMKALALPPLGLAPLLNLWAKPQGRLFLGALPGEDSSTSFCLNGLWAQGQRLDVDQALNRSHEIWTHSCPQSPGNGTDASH
Strictly below 2 nM in Kd: 1. Otherwise: -1.

Study these solved cases before continuing.
> print(dat)
                                   compound  answer.label
1  C[C@@H]1C[C@H]2CC(=O)CC[C@]2(C)[C@H]2CC[C@]3(C)[C@@H](O)CC[C@H]3[C@H]12             1
2  COc1cc2c(cc1O)CC[C@@H]1[C@@H]2CC[C@]2(C)[C@@H](O)CC[C@@H]12             1
3  C[C@@H]1CC2=CC(=O)C=C[C@]2(C)[C@H]2CC[C@@]3(C)[C@@H](CC[C@]3(C)O)[C@H]12            -1

Find out if reported Kd for CC[C@H](C1CCC(O)CC1)[C@@H](CC)C1CCC(O)CC1 (stereo partly drawn) is less than 2 nM -1

Find out if reported Kd for C#C[C@]1(O)CC[C@H]2[C@@H]3CC[C@H]4CC(=O)CC[C@@H]4[C@H]3C(=C)C[C@@]21CC is less than 2 nM 1

Find out if reported Kd for C#C[C@]1(O)CC[C@H]2[C@@H]3CCC4=C[C@@H](O)CC[C@]4(C)C3C(=C)C[C@@]21CC (stereo partly drawn) is less than 2 nM -1

Find out if reported Kd for C[C@@H]1CC2=CC(=O)CC[C@@H]2[C@H]2CC[C@@]3(C)C(=CC[C@@H]3O)[C@@H]21 is less than 2 nM 1

Find out if reported Kd for C[C@]12CCC(=O)C=C1CC[C@@H]1[C@@H]2[C@@H](O)C[C@@]2(C)[C@H]1CC[C@]2(O)C(=O)CO [HYDROCORTISONE] is less than 2 nM -1

* * *

Dear all, this message contains Kd results, target or system Sex hormone-binding globulin (Homo sapiens).
Field format: number, assumed nM, no unit text.

// solved cases for Kd follow
> print(dat)
                                   compound  value
1  C[C@H]1CC(=O)C[C@@H]2CC[C@H]3[C@@H]4CC[C@H](O)[C@@]4(C)CC[C@@H]3[C@]21C  0.251
2  C[C@@H]1CC2=CC(=O)C=C[C@]2(C)[C@H]2CC[C@]3(C)[C@@H](O)CC[C@H]3[C@H]12   4.37
3  C[C@]12CCC3=C4CCC(=O)C=C4C=C[C@H]3[C@@H]1CC[C@@H]2O   1150
4  C[C@]12CCC(=O)C=C1CC[C@@H]1[C@@H]2CC[C@]2(C)C(=O)CC[C@@H]12   34.7
5  CC(=O)O[C@]1(C(C)=O)CC[C@H]2[C@@H]3C[C@H](C)C4=CC(=O)CC[C@]4(C)[C@H]3CC[C@@]21C [MEDROXYPROGESTERONE ACETATE]    631
6  C[C@]12CC[C@H]3[C@@H](CCC4=CC(=O)CC[C@@]43C)[C@@H]1CC[C@@H]2O  0.631

As a next step, examine the compound that follows.
The value of Kd recorded for C[C@]12CC[C@H]3[C@@H](CCC4=CC(=O)CC[C@@]43C)[C@@H]1CC[C@@H]2C(=O)CO when tested on Sex hormone-binding globulin (Homo sapiens) reads 41.7

* * *

- experimental-target: Sex hormone-binding globulin (Homo sapiens)
- Sequence (P04278 whole entry): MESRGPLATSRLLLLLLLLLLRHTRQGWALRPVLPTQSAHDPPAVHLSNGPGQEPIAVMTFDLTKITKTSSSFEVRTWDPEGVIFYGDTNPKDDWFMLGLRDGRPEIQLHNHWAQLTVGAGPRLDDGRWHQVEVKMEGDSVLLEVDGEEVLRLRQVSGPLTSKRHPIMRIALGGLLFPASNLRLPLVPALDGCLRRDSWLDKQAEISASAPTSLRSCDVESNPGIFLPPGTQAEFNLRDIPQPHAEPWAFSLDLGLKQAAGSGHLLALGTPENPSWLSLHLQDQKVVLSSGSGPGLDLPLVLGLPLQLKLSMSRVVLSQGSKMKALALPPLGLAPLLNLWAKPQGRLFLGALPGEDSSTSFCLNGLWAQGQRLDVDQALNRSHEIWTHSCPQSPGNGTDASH
Some molecules, each annotated with its measured pKd.
The scale used: pKd is minus the common logarithm of the concentration in molar units.

// solved cases for pKd follow
> print(dat)
                                   molecule  value
1  C[C@]12CCC(=O)C[C@@H]1CC[C@@H]1[C@@H]2[C@@H](O)C[C@@]2(C)[C@H]1CC[C@@]2(O)CCCN   4.96
2  C[C@@H]1CC2=CC(=O)CC[C@]2(C)[C@H]2CC[C@@]3(C)[C@@H](CC[C@]3(C)O)[C@H]12 [BOLASTERONE]   8.76
3  C[C@]12CC[C@H]3[C@@H](CC[C@H]4CC(=O)C[C@H](CCCCCCN)[C@@]43C)[C@@H]1CC[C@@H]2O   7.53

As a next step, examine the molecule that follows.
The value of pKd measured for the molecule C#C[C@]1(O)CC[C@H]2[C@@H]3CCC4=C[C@H](O)CC[C@]4(C)C3C(=C)C[C@@]21CC (some centres undefined) turned out to be 7.67

* * *

Dear all, this message contains pKd results, target or system Sex hormone-binding globulin (Homo sapiens).
The scale used: pKd is minus the common logarithm of the concentration in molar units.

> print(dat)
                                   compound  value
1  C#C[C@]1(O)CC[C@H]2[C@@H]3CC=C4C[C@@H](O)CC[C@]4(C)[C@H]3CC[C@@]21C   8.91
2  C[C@]12CC[C@H]3[C@@H](CCC4CC(=O)CC[C@@H]43)[C@@H]1CC[C@@H]2O (some centres undefined)   8.36
3  C[C@]12CC[C@H]3C(=CCc4cc(O)ccc43)[C@@H]1CCC2=O   8.51
4  C[C@]12CC[C@H]3C(=CCc4cc(O)ccc43)[C@@H]1CC[C@@H]2O   8.62
5  C#C[C@]1(O)CC[C@H]2[C@@H]3[C@H](C)C=C4CC(O)CC[C@]4(C)[C@H]3CC[C@@]21C (some centres undefined)   6.44
6  C[C@]1(O)CC[C@H]2[C@@H]3CCC4=CC(=O)CC[C@]4(C)[C@@]3(F)C(=O)C[C@@]21C   8.23

The value of pKd recorded for C[C@@H]1CC2=CC(=O)CC[C@]2(C)[C@H]2CC[C@]3(C)[C@@H](O)CC[C@H]3[C@H]12 when tested on Sex hormone-binding globulin (Homo sapiens) reads 8.71

The value of pKd recorded for C[C@@H]1C[C@H]2C[C@@H](O)CC[C@]2(C)[C@H]2CC[C@@]3(C)[C@@H](CC[C@]3(C)O)[C@H]12 when tested on Sex hormone-binding globulin (Homo sapiens) reads 8.46

The value of pKd recorded for CCc1cc(C(=O)Cc2ccccc2C)c(O)cc1O when tested on Sex hormone-binding globulin (Homo sapiens) reads 6.97

The value of pKd recorded for C[C@@H]1C[C@H]2C[C@@H](O)CC[C@]2(C)[C@H]2CC[C@]3(C)[C@@H](O)CC[C@H]3[C@H]12 when tested on Sex hormone-binding globulin (Homo sapiens) reads 9.00

The value of pKd recorded for C[C@H]1C[C@H]2[C@@H]3CC[C@H](O)[C@@]3(C)CC[C@@H]2[C@@]2(C)CCC(=O)C=C12 when tested on Sex hormone-binding globulin (Homo sapiens) reads 8.36

The value of pKd recorded for C#C[C@]1(O)CC[C@H]2[C@@H]3CCC4=CC(=O)CC[C@]4(C)[C@H]3CC[C@@]21C when tested on Sex hormone-binding globulin (Homo sapiens) reads 8.78

The value of pKd recorded for C[C@]12CC[C@@H]3c4ccc(O)cc4CC[C@H]3[C@@H]1CCC2=O when tested on Sex hormone-binding globulin (Homo sapiens) reads 8.18

The value of pKd recorded for C[C@@H]1C=C2CC(O)CC[C@]2(C)[C@H]2CC[C@@]3(C)[C@@H](CC[C@]3(C)O)[C@H]12 (some centres undefined) when tested on Sex hormone-binding globulin (Homo sapiens) reads 6.44

The value of pKd recorded for COc1cc(/C=N/CCc2ccccc2)ccc1O when tested on Sex hormone-binding globulin (Homo sapiens) reads 6.23

The value of pKd recorded for C#C[C@]1(O)CC[C@H]2[C@@H]3CCC4=CC(=O)CCC4=C3C=C[C@@]21CC when tested on Sex hormone-binding globulin (Homo sapiens) reads 8.11

The value of pKd recorded for CC(=O)[C@H]1CC[C@H]2[C@@H]3CCC4=CC(=O)CC[C@]4(C)[C@H]3CC[C@]12C when tested on Sex hormone-binding globulin (Homo sapiens) reads 6.94

The value of pKd recorded for C[C@]12CCC(=O)C[C@@H]1[C@@H](F)C[C@@H]1[C@@H]2CC[C@]2(C)[C@@H](O)CC[C@@H]12 when tested on Sex hormone-binding globulin (Homo sapiens) reads 9.05

The value of pKd recorded for C[C@]12CC[C@H]3[C@@H](CC=C4C[C@@H](O)CC[C@@H]43)[C@@H]1CC[C@@H]2O when tested on Sex hormone-binding globulin (Homo sapiens) reads 9.54

The value of pKd recorded for C#C[C@]1(O)CC[C@H]2[C@H]3[C@H](C(=C)C[C@@]21CC)[C@H]1CC[C@@H](O)C[C@@H]1C[C@H]3C when tested on Sex hormone-binding globulin (Homo sapiens) reads 8.27

The value of pKd recorded for CCCCCCCCCc1ccc(O)cc1 when tested on Sex hormone-binding globulin (Homo sapiens) reads 5.92

The value of pKd recorded for C[C@]12CC[C@@H]3c4ccc(O)cc4C=C[C@H]3[C@@H]1CC[C@@H]2O when tested on Sex hormone-binding globulin (Homo sapiens) reads 8.76

The value of pKd recorded for C[C@@H]1CC2CC(=O)CC[C@@H]2[C@H]2CC[C@]3(C)[C@@H](O)CC[C@H]3[C@@H]21 (some centres undefined) when tested on Sex hormone-binding globulin (Homo sapiens) reads 8.46

The value of pKd recorded for CC1=C2CC[C@H]3[C@@H]4CC[C@H](O)[C@@]4(C)CC[C@@H]3[C@@]2(C)CCC1=O when tested on Sex hormone-binding globulin (Homo sapiens) reads 9.31
